This collection of values is drawn from paper PMC10397247.

Target: T1, P3-AA
T1 chain: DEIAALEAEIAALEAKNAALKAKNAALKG
Assay: two-hybrid library CCmax;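 further: natural log of median RNA to DNA barcode read ratio; higher means stronger binding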
ATTRIBUTE_MEASURED: interaction score

Look over these answered cases.
BINDER	interaction score
KRLKQIEKRLQAKEWEKAQLRKELQALRK [4H_APH4]	-1.05
DEIAALEAEIAALEAKNAALKAKNAALKG [P3-AA]	-1.46
KRAKQLRKRLQALEWQLAQIRKELQAAEK [4H_APH3]	-1.01

[A] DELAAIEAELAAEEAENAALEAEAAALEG [AP1-AA]
[B] DKNAALEAKIAALEAKIAALEAKIAALEG [4H3365-AA]
[C] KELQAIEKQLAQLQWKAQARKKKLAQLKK [4H_APH]
Prompt: Ascending sort, interaction score. # output: labels, in the requested order
Response: B, A, C
(B: -2.3, A: -1.19, C: -0.728)
